# Test system: NCI/ADR-RES
# assay procedure: NCI tumour cell line growth inhibition, 48 h
The source made the active and inactive calls. No stated cut-off is given here; in the data, active = GI50 up to about 1.1 µM and inactive = higher.
reported property: GI50

molecular string: O=C1C=C(Nc2nc(O)cc(C(=O)O)n2)c2ccccc2C1=O
result: > 100 µM (inactive)
--
molecular string: NCCCCNCCCNC(=O)c1csc(-c2nc(CCN)sc2Cl)n1
result: > 100 µM (inactive)
--
molecular string: Clc1ccc(OCc2nnc(CCCCCCCCc3nnc(COc4ccc(Cl)cc4)o3)o2)cc1
result: > 100 µM (inactive)
--
molecular string: Cc1c(F)c(N)c2c(=O)cc(-c3ccc(NC(=O)[C@@H](N)CCCCN)c(F)c3)oc2c1F
result: 21.4 µM (inactive)
--
molecular string: COc1c(Cl)c(=O)oc2ccc(Cl)cc12
result: > 100 µM (inactive)

Source: ChEMBL document CHEMBL1201862
